Hey, just so you know, these numbers are from ChEMBL document CHEMBL1146816.

Attribute: ED30
- Test system: MDA-MB-231
- experiment.notes: Dose required for 30% clonal survival of ER negative MDA-MB-231 breast cancer cells after 2 hr
- Type: functional, Homo sapiens
Report as a plain number; the unit µM is understood.

Solved cases below.
C[C@]12CC[C@@H]3c4ccc(O)cc4C[C@@H](CCCCCCNC(=O)CCCc4ccc(N(CCCl)CCCl)cc4)[C@H]3[C@@H]1CC[C@@H]2O : 20
C[C@]12CC[C@@H]3c4ccc(O)cc4C[C@@H](CCCCCCNCCCCNCCCCc4ccc(N(CCCl)CCCl)cc4)[C@H]3[C@@H]1CC[C@@H]2O : 7.9
C[C@]12CC[C@@H]3c4ccc(O)cc4C[C@@H](CCCCCCNCCOC(=O)NCCCc4ccc(N(CCCl)CCCl)cc4)[C@H]3[C@@H]1CC[C@@H]2O : 9.6

Let us move to another entry and its ED30.
Query string: Quick one: ED30 for `C[C@]12CC[C@@H]3c4ccc(O)cc4C[C@@H](CCCCCCNCCCCc4ccc(N(CCCl)CCCl)cc4)[C@H]3[C@@H]1CC[C@@H]2O` ?
Result string: 8.6

====

- experiment.notes: Percent of 16-mer cleaved by piperidine after treatment with test compound for 24 hr at 37 degrees C
- Assay type: functional
Readings of Oligo modified for the listed molecules
Give the number; % is assumed, so skip it.

C[C@]12CC[C@@H]3c4ccc(O)cc4C[C@@H](CCCCCCNCCCCNCCCCc4ccc(N(CCCl)CCCl)cc4)[C@H]3[C@@H]1CC[C@@H]2O : 79
C[C@]12CC[C@@H]3c4ccc(O)cc4C[C@@H](CCCCCCNC(=O)CCCc4ccc(N(CCCl)CCCl)cc4)[C@H]3[C@@H]1CC[C@@H]2O : 14
C[C@]12CC[C@@H]3c4ccc(O)cc4C[C@@H](CCCCCCNCCCCc4ccc(N(CCCl)CCCl)cc4)[C@H]3[C@@H]1CC[C@@H]2O : 44
C[C@]12CC[C@@H]3c4ccc(O)cc4C[C@@H](CCCCCCNCCOC(=O)NCCCc4ccc(N(CCCl)CCCl)cc4)[C@H]3[C@@H]1CC[C@@H]2O : 45
C[C@]12CC[C@@H]3c4ccc(O)cc4C[C@@H](CCCCCCNCC/N=C(/N)NCCCc4ccc(N(CCCl)CCCl)cc4)[C@H]3[C@@H]1CC[C@@H]2O : 29
C[C@]12CC[C@@H]3c4ccc(O)cc4C[C@@H](CCCCCCNC(=O)CCCNC(=O)CCCc4ccc(N(CCCl)CCCl)cc4)[C@H]3[C@@H]1CC[C@@H]2O : 39
C[C@]12CC[C@@H]3c4ccc(O)cc4C[C@@H](CCCCCC/N=C(/N)NCCCc4ccc(N(CCCl)CCCl)cc4)[C@H]3[C@@H]1CC[C@@H]2O : 58

Query string: Any idea what its Oligo modified is? The molecule is `C[C@]12CC[C@@H]3c4ccc(O)cc4C[C@@H](CCCCCCOC(=O)NCCCc4ccc(N(CCCl)CCCl)cc4)[C@H]3[C@@H]1CC[C@@H]2O`
Result string: 3
